B1: 2K2A (parent)
chain: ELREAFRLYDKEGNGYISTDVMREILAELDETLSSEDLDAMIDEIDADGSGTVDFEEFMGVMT

Variants of: B1
Test: folding stability dG (cDNA display proteolysis); higher = more stable
Details: PBS, room temperature
Response key: y means folding stability dG >= 2 kcal/mol; n means folding stability dG < 2 kcal/mol.

| chainSequence | group |
| --- | --- |
| ELREAFRLYDKEGNGYISTDVMREILAELDETLSSEDLDAMIDEIDADGSGTVDFEEFMGIMT | y |
| ELREAFRLYDKEGNGYISTDVMREILAELDETLSSEDLDAMIDEIDADGSGTVDFAEFMGVMT | n |
| ELREAFRLYDKEGNGYISTDVMREILAELDETCSSEDLDAMIDEIDADGSGTVDFEEFMGVMT | n |
| ELREAFRLYDKEGNGYISTDVMREILAELDETLSSEDLDAMIDEIDADGSGTVDFEEFMLVMT | y |
| ELREAFRLYDKEGNGYISTDVMREILAELDETLSSEDLDAMIDEIDADWSGTVDFEEFMGVMT | n |
| ELREAFRLYDKEGNGYISTDVMREILAELDKTLSSEDLDAMIDEIDADGSGTVDFEEFMGVMT | y |
| ELSEAFRLYDKEGNGYISTDVMREILAELDETLSSEDLDAMIDEIDADGSGTVDFEEFMGVMT | n |
| EIREAFRLYDKEGNGYISTDVMREILAELDETLSSEDLDAMIDEIDADGSGTVDFEEFMGVMT | n |
| ELREAFRLYDKEGNGYISTDVMREILAELDGTLSSEDLDAMIDEIDADGSGTVDFEEFMGVMT | y |
| ELREAFRLYDKEGNGYISTDVMREQLAELDETLSSEDLDAMIDEIDADGSGTVDFEEFMGVMT | n |
| ELREAFGLYDKEGNGYISTDVMREILAELDETLSSEDLDAMIDEIDADGSGTVDFEEFMGVMT | n |
| ELREAFRLYDKEGNGYISTDVMREILAELDETLSSEDLDAMIDEISADGSGTVDFEEFMGVMT | n |
| ELREAFRLYDKEGNGYISTDVMREILAELDETLSSTDLDAMIDEIDADGSGTVDFEEFMGVMT | n |
| ELREAFRLYDKEGNGYISTDVMREILAESDETLSSEDLDAMIDEIDADGSGTVDFEEFMGVMT | n |
| ELREAFRLYDKEGNGYISTDVMREILAELDETLSSEDLDAMIDEIDADGSGTVQFEEFMGVMT | n |
| ELREAFRLYDKEGNGYISTDVMREILAELDETLSSEDLDAMIDEIDADGSGTVDFEEFVGVMT | y |
| ELREAFRLYQKEGNGYISTDVMREILAELDETLSSEDLDAMIDEIDADGSGTVDFEEFMGVMT | n |
| ELREAFRLYDKEGNGYISTCVMREILAELDETLSSEDLDAMIDEIDADGSGTVDFEEFMGVMT | n |
| ELREAFRLYDKEGNGYIRTDVMREILAELDETLSSEDLDAMIDEIDADGSGTVDFEEFMGVMT | n |
| ELREAFRLYDKEGNGYISTDVMREILAELDETLSSEDLDAMIDEIDEDGSGTVDFEEFMGVMT | n |
| ELREAFRLVDKEGNGYISTDVMREILAELDETLSSEDLDAMIDEIDADGSGTVDFEEFMGVMT | n |
| ELREAFRLYDKEGNGYISTDVMREILAELDETLSSEDLDAMIYEIDADGSGTVDFEEFMGVMT | y |
| ELREAFRLYDKEGNGYISTDVMREILAELDETLSSEDLDAMIDEIDAPGSGTVDFEEFMGVMT | n |
| ELREAFRLYDKEGNGYISTDVAREILAELDETLSSEDLDAMIDEIDADGSGTVDFEEFMGVMT | n |
| ELREAFRLYDKEGNGYISTDVMREILAELDETLSSEDLDAMIDEIDADGSGTVDDEEFMGVMT | n |
| ELREATRLYDKEGNGYISTDVMREILAELDETLSSEDLDAMIDEIDADGSGTVDFEEFMGVMT | n |
| ELREAFRLYDKEGNGYISTDVMREILAELDETLSSEDLDAMIDEIDADGSGTVDFEEFMGVWT | n |
| ELREAFRLYDKEGNGYISTDVMREILAELDETLSSEDLDAMIDEIDADGSGTVVFEEFMGVMT | n |
| ELREAFRLYDKIGNGYISTDVMREILAELDETLSSEDLDAMIDEIDADGSGTVDFEEFMGVMT | n |
| ELREAFRLYDKEGNGYISTDVMREILAELDETLSSETLDAMIDEIDADGSGTVDFEEFMGVMT | n |
| ELREDFRLYDKEGNGYISTDVMREILAELDETLSSEDLDAMIDEIDADGSGTVDFEEFMGVMT | n |
| ELREAFRLYDKEGNGYISTDVMREILAELDETLSNEDLDAMIDEIDADGSGTVDFEEFMGVMT | n |
| EAREAFRLYDKEGNGYISTDVMREILAELDETLSSEDLDAMIDEIDADGSGTVDFEEFMGVMT | n |
| ELREAFRLYDKEGNGYISTDVMREILAELDTTLSSEDLDAMIDEIDADGSGTVDFEEFMGVMT | y |
| ELREAFRLYDKEGNGYISTDVMREILAELDETLSSEDLIAMIDEIDADGSGTVDFEEFMGVMT | n |
| ELREAFRLYDKEGNGYISTDVMREILAELDETLSSEDLDNMIDEIDADGSGTVDFEEFMGVMT | n |
| ELREAFRLYDKEGNGYISTDVMREILAELDETLSSEDLDAMIDEIDADFSGTVDFEEFMGVMT | n |
| ELREAFRLYDKEGNGYISTDVMREILDELDETLSSEDLDAMIDEIDADGSGTVDFEEFMGVMT | n |
| ELREAFRLYDKMGNGYISTDVMREILAELDETLSSEDLDAMIDEIDADGSGTVDFEEFMGVMT | n |
| ELREAFRLYDDEGNGYISTDVMREILAELDETLSSEDLDAMIDEIDADGSGTVDFEEFMGVMT | n |
| ELREFFRLYDKEGNGYISTDVMREILAELDETLSSEDLDAMIDEIDADGSGTVDFEEFMGVMT | y |
| ELREAFRLYAKEGNGYISTDVMREILAELDETLSSEDLDAMIDEIDADGSGTVDFEEFMGVMT | n |
| ELREAFRLYDKEGNGYISTDVVREILAELDETLSSEDLDAMIDEIDADGSGTVDFEEFMGVMT | n |
| EDREAFRLYDKEGNGYISTDVMREILAELDETLSSEDLDAMIDEIDADGSGTVDFEEFMGVMT | n |
| ELREAFRLYDKEGNGYISTDVMREILAELDETLSSEDLDAMIDEIDADGSGTVDFEPFMGVMT | n |
| ELREAFRLYDKEGNGYISTDVMREILAELDETLSSEDLDAMIDKIDADGSGTVDFEEFMGVMT | y |
| ELREAFRLYDKEGNGYICTDVMREILAELDETLSSEDLDAMIDEIDADGSGTVDFEEFMGVMT | n |
| ELREAFRLYHKEGNGYISTDVMREILAELDETLSSEDLDAMIDEIDADGSGTVDFEEFMGVMT | n |
| ELREAFRLYDKEGNGYISTDVDREILAELDETLSSEDLDAMIDEIDADGSGTVDFEEFMGVMT | n |
| ELREAFRLYDKEGNWYISTDVMREILAELDETLSSEDLDAMIDEIDADGSGTVDFEEFMGVMT | n |
| ELREAFRLYDKEGNMYISTDVMREILAELDETLSSEDLDAMIDEIDADGSGTVDFEEFMGVMT | n |
| ELREAFRLYDKEGNGYISTDVMREILAELDEFLSSEDLDAMIDEIDADGSGTVDFEEFMGVMT | n |
| ELREAFRLYDKEGNGYISTDVMREILAELDETLSHEDLDAMIDEIDADGSGTVDFEEFMGVMT | n |
| EQREAFRLYDKEGNGYISTDVMREILAELDETLSSEDLDAMIDEIDADGSGTVDFEEFMGVMT | n |
| ELREAFRLYDKEGNGYISTDVMREILAELDETLSSEDLDAMIDEIDADGSGTVLFEEFMGVMT | n |
| ELREAFRLYDKEGNGYISTDVMREILAELDETLSSEDLDAMIDEILADGSGTVDFEEFMGVMT | n |
| ELREAFRLYDKEGNGYISTDVMREILAELDETLSSEDLDAMIDEIDADNSGTVDFEEFMGVMT | n |
| ELREAFRLYDKEGNGYISTPVMREILAELDETLSSEDLDAMIDEIDADGSGTVDFEEFMGVMT | n |
| ELREAFRLYDKEGNGYISTDVMREILAELDETLSSEDLDAMWDEIDADGSGTVDFEEFMGVMT | n |
| ELREAFRLYDKEGNGYISTTVMREILAELDETLSSEDLDAMIDEIDADGSGTVDFEEFMGVMT | y |
| ELREAFRLYDKEGNGYIMTDVMREILAELDETLSSEDLDAMIDEIDADGSGTVDFEEFMGVMT | n |
| ELREAFRLYDKEGNGYISTDVMREILAEGDETLSSEDLDAMIDEIDADGSGTVDFEEFMGVMT | n |
| ELREAFRLYDKEGNGYISTDVMRPILAELDETLSSEDLDAMIDEIDADGSGTVDFEEFMGVMT | n |
| ELYEAFRLYDKEGNGYISTDVMREILAELDETLSSEDLDAMIDEIDADGSGTVDFEEFMGVMT | y |
| ELREAFRLYDKEGNGYISTDVMREILAFLDETLSSEDLDAMIDEIDADGSGTVDFEEFMGVMT | n |
| ELREAFRLYDKEGNGYISTDVMREILAELDETLSSEDLPAMIDEIDADGSGTVDFEEFMGVMT | n |
| ELREAFRLTDKEGNGYISTDVMREILAELDETLSSEDLDAMIDEIDADGSGTVDFEEFMGVMT | n |
| ELREAFRLYDKEGNGYISTDVMREILAEWDETLSSEDLDAMIDEIDADGSGTVDFEEFMGVMT | y |
| ELREAFRLYDKEGNGYISTDVMREILAELDETLSSEDLDAMIDEIDADGSGTVDFEKFMGVMT | y |
| ELREAFRLMDKEGNGYISTDVMREILAELDETLSSEDLDAMIDEIDADGSGTVDFEEFMGVMT | n |
| ELREAFRLYDKEGNGYISTDVMREILAELDETLSSEDLDAMDDEIDADGSGTVDFEEFMGVMT | n |
| ELREAFRLYDKEGNGYISTDVMREIMAELDETLSSEDLDAMIDEIDADGSGTVDFEEFMGVMT | n |
| ELREAFRLYDKEGNGYISTDVMREILAELDETLSSEDLDAMIDEIDADGSGTVDFHEFMGVMT | n |
